- ASSAYED TARGET: HA-VP16-TraR fusion (TraR from Agrobacterium strain A348 fused to VP16 activation domain; pMON53030) (UniProt P06492+P33905)
- Construct: PCR fragments containing open reading frames are cloned into an expression construct; expressed in transfected cells; host or cells: carrot protoplasts from cell suspension culture, transient transfection
- METHOD SUMMARY: Transient GUS reporter assay in transfected carrot protoplasts with VP16-TraR effector
- Assay type: cell-based, Agrobacterium tumefaciens
- EXPERIMENTAL CONTEXT: ratio of GUS activity at 12.5 µM to that at 5 µM; reporter TraA8(4X)-GUS + 35S-VP16-TraR
- Description: Carrot protoplasts were transfected with the TraA8 (4X)- GUS reporter construct with the 35S-VP16-TraR activator gene and tested for GUS induction by application of wild type AHL and the various AHL analogs described in Example 8. Table 8: Transient assays in carrot protoplasts of AHL analogs
Use 2 fold as the dividing line for fold +/-, with the line itself on the T side and lower values as F.

# count of solved cases: 4
CCCCCC(=O)C(C)C(=O)N[C@@H](CCO)C(=O)O (some centres unmarked) ... T
CCCCCC(=O)C(C)(C)C(=O)N[C@@H](CCO)C(=O)O ... T
CCCCCCC(C(C)=O)C(=O)N[C@@H](CCO)C(=O)O (some centres unmarked) ... T
CCCCCC(=O)C(CC)C(=O)N[C@@H](CCO)C(=O)O (some centres unmarked) ... T

Okay, next one:
Request: API: above_or_equal(metric=fold +/-, cutoff=2 fold) for item CCCCCC(=O)C(CCCC)C(=O)N[C@@H](CCO)C(=O)O (some centres unmarked)
Response: F

----------
- ASSAYED TARGET: HA-VP16-TraR fusion (TraR from Agrobacterium strain A348 fused to VP16 activation domain; pMON53030) (UniProt P06492+P33905)
- Construct: PCR fragments containing open reading frames are cloned into an expression construct; expressed in transfected cells; host or cells: carrot protoplasts from cell suspension culture, transient transfection
- METHOD SUMMARY: Transient GUS reporter assay in transfected carrot protoplasts with VP16-TraR effector
- Assay type: cell-based, Agrobacterium tumefaciens
- EXPERIMENTAL CONTEXT: ratio of GUS activity at 75 µM to that at 25 µM; reporter TraA8(4X)-GUS + 35S-VP16-TraR
- Description: Carrot protoplasts were transfected with the TraA8 (4X)- GUS reporter construct with the 35S-VP16-TraR activator gene and tested for GUS induction by application of wild type AHL and the various AHL analogs described in Example 8. Table 8: Transient assays in carrot protoplasts of AHL analogs
MEASURED QUANTITY: fold +/- (fold)
One number for each entry, in fold.

// known answers, use as guide
CCCCCC(=O)C(C)C(=O)N[C@@H](CCO)C(=O)O (stereo partly shown) ... 1.3
CCCCCC(=O)C(C)(C)C(=O)N[C@@H](CCO)C(=O)O ... 3.3
CCCCCC(=O)C(CCCC)C(=O)N[C@@H](CCO)C(=O)O (stereo partly shown) ... 1.1

Now for another entry.
Request: Quick one: fold +/- of CCCCCCC(C(C)=O)C(=O)N[C@@H](CCO)C(=O)O (stereo partly shown) ?
Response: 1.9

----------
- ASSAYED TARGET: HA-VP16-TraR fusion (TraR from Agrobacterium strain A348 fused to VP16 activation domain; pMON53030) (UniProt P06492+P33905)
- Construct: PCR fragments containing open reading frames are cloned into an expression construct; expressed in transfected cells; host or cells: carrot protoplasts from cell suspension culture, transient transfection
- METHOD SUMMARY: Transient GUS reporter assay in transfected carrot protoplasts with VP16-TraR effector
- Type: cell-based, Agrobacterium tumefaciens
- Parameters: unit not given here
- EXPERIMENTAL CONTEXT: 25 µM of the AHL or analog; reporter TraA8(4X)-GUS + 35S-VP16-TraR
MEASURED QUANTITY: GUS activity, average

Worked cases, answers included:
CCCCCCC(C(C)=O)C(=O)N[C@@H](CCO)C(=O)O (some centres unmarked) ... 1515.3
CCCCCC(=O)C(C)(C)C(=O)N[C@@H](CCO)C(=O)O ... 1426.6
CCCCCC(=O)C(C)C(=O)N[C@@H](CCO)C(=O)O (some centres unmarked) ... 2486.3

Count: 2. Required value per item: GUS activity, average.
1. CCCCCC(=O)C(CC)C(=O)N[C@@H](CCO)C(=O)O (some centres unmarked)
2. CCCCCC(=O)C(CCCC)C(=O)N[C@@H](CCO)C(=O)O (some centres unmarked)

Response:
1: 6732.3; 2: 224.2

----------
- ASSAYED TARGET: HA-VP16-TraR fusion (TraR from Agrobacterium strain A348 fused to VP16 activation domain; pMON53030) (UniProt P06492+P33905)
- Construct: PCR fragments containing open reading frames are cloned into an expression construct; expressed in transfected cells; host or cells: carrot protoplasts from cell suspension culture, transient transfection
- METHOD SUMMARY: Transient GUS reporter assay in transfected carrot protoplasts with VP16-TraR effector
- Type: cell-based, Agrobacterium tumefaciens
- Design: unit not given here
- EXPERIMENTAL CONTEXT: 75 µM of the AHL or analog; reporter TraA8(4X)-GUS + 35S-VP16-TraR
- From the text: Carrot protoplasts were transfected with the TraA8 (4X)- GUS reporter construct with the 35S-VP16-TraR activator gene and tested for GUS induction by application of wild type AHL and the various AHL analogs described in Example 8. Table 8: Transient assays in carrot protoplasts of AHL analogs
Kindly supply the reported GUS activity, average (+ inducer) values for the records listed here.

CCCCCCC(C(C)=O)C(=O)N[C@@H](CCO)C(=O)O (stereo partly shown) [compound 26] ... 2879.9
CCCCCC(=O)C(C)C(=O)N[C@@H](CCO)C(=O)O (stereo partly shown) [compound 7] ... 3209.7
CCCCCC(=O)C(CCCC)C(=O)N[C@@H](CCO)C(=O)O (stereo partly shown) [compound 25] ... 252.9

Request: // GUS activity, average (+ inducer) lookup, key: CCCCCC(=O)C(C)(C)C(=O)N[C@@H](CCO)C(=O)O [compound 16]
Response: 4719.8

----------
What fold +/- was measured for each of the following?
- ASSAYED TARGET: HA-VP16-TraR fusion (TraR from Agrobacterium strain A348 fused to VP16 activation domain; pMON53030) (UniProt P06492+P33905)
- Construct: PCR fragments containing open reading frames are cloned into an expression construct; expressed in transfected cells; host or cells: carrot protoplasts from cell suspension culture, transient transfection
- METHOD SUMMARY: Transient GUS reporter assay in transfected carrot protoplasts with VP16-TraR effector
- Format: cell-based, Agrobacterium tumefaciens
- EXPERIMENTAL CONTEXT: ratio of GUS activity at […] to that at 1 µM; reporter TraA8(4X)-GUS + 35S-VP16-TraR

Some solved cases for reference:
CCCCCC(=O)C(CC)C(=O)N[C@@H](CCO)C(=O)O (some centres unmarked) ... 2.8 fold
CCCCCCC(C(C)=O)C(=O)N[C@@H](CCO)C(=O)O (some centres unmarked) ... 1.2 fold
CCCCCC(=O)C(C)(C)C(=O)N[C@@H](CCO)C(=O)O ... 2.8 fold
CCCCCC(=O)C(CCCC)C(=O)N[C@@H](CCO)C(=O)O (some centres unmarked) ... 2.1 fold

Switching to the query record.
Request: Item CCCCCC(=O)C(C)C(=O)N[C@@H](CCO)C(=O)O (some centres unmarked) has what recorded fold +/-?
Response: 1.8 fold

----------
- ASSAYED TARGET: HA-VP16-TraR fusion (TraR from Agrobacterium strain A348 fused to VP16 activation domain; pMON53030) (UniProt P06492+P33905)
- Construct: PCR fragments containing open reading frames are cloned into an expression construct; expressed in transfected cells; host or cells: carrot protoplasts from cell suspension culture, transient transfection
- METHOD SUMMARY: Transient GUS reporter assay in transfected carrot protoplasts with VP16-TraR effector
- Assay type: cell-based, Agrobacterium tumefaciens
- Parameters: unit not given here
- EXPERIMENTAL CONTEXT: 5 µM of the AHL or analog; reporter TraA8(4X)-GUS + 35S-VP16-TraR
Provide the reported GUS activity, average (with AHL or analog at the stated concentration) of each item.
One number for each entry.

CCCCCC(=O)C(CC)C(=O)N[C@@H](CCO)C(=O)O (some centres unmarked) [compound 19] ... 2239.4
CCCCCCC(C(C)=O)C(=O)N[C@@H](CCO)C(=O)O (some centres unmarked) [compound 26] ... 387.6
CCCCCC(=O)C(CCCC)C(=O)N[C@@H](CCO)C(=O)O (some centres unmarked) [compound 25] ... 309.3
CCCCCC(=O)C(C)C(=O)N[C@@H](CCO)C(=O)O (some centres unmarked) [compound 7] ... 1071.5

Request: Any idea what its GUS activity, average (with AHL or analog at the stated concentration) is? The molecule is CCCCCC(=O)C(C)(C)C(=O)N[C@@H](CCO)C(=O)O [compound 16]
Response: 229.7
